# Tested on: MS2 coat protein
# testSummary: apparent KD of MS2 coat protein; higher = weaker reporter binding
# conditionContext: Eterna round: R107; input ligand: arginine 13.2 mM
Record 1 whenever apparent KD of MS2 coat protein is at 30 nM or higher; record -1 when lower.

Input line: Could you please find out whether CUAUAAGUACCGGUCCUCAGAUCCUCAUGACGAGGACCGGUACGGCCGCCACUCGAAACAUGAGGAUCACCCAUGUAAUAAUAUU [Brourdmod10] has apparent KD of MS2 coat protein that meets 30 nM or exceeds it?
Output line: -1

Input line: Could you please find out whether UCCUCCUCCGCAAGGAGGAGGAGUUGCGAUACCAGCACGGUAACGUGCCCUUGGCAGCGCACAUGAGGAUCACCCAUGUGGUGUU [#1 Exclusion - Theophylline A Attempt #12 (HarryS)] has apparent KD of MS2 coat protein that meets 30 nM or exceeds it?
Output line: 1

Input line: Could you please find out whether GACCUUAUCUGAAGGAGCGAGGUAAAUAGGGUUGAGCAUACAUGAGGAUCACCCAUGUGGCCUCAGGUAGGUCGCAGAUAAGACA [Exclusion Arginine B GF29] has apparent KD of MS2 coat protein that meets 30 nM or exceeds it?
Output line: 1

Input line: Could you please find out whether UAUAUAUAUAUUGAUACCAGCAGAGAAAACGUAUAUCCUAACAUGAGGAUCACCCAUGUAUGCCCUUGGCAGCGAUAUAUAUAUA [8.B] has apparent KD of MS2 coat protein that meets 30 nM or exceeds it?
Output line: -1

Input line: Could you please find out whether UUACAACUAAUGGAUACCAGCCGCGUGCUAGUGGUAGCAUACAUGAGGAUCACCCAUGUCGGCCCUUGGCAGCCACGCCCAUGCU [theeternabot_exclusion_MS2_Theo_B_2] has apparent KD of MS2 coat protein that meets 30 nM or exceeds it?
Output line: -1

* * *

# Tested on: MS2 coat protein
# testSummary: apparent KD of MS2 coat protein, switch ON state; designed switch direction (-1 OFF switch, 1 ON switch): -1; higher = weaker reporter binding
# conditionContext: FMN input: 0 or 200 uM; Eterna round: R93 (includes R88 designs)
Ranges used to classify apparent KD of MS2 coat protein: group 1 = under 30 nM, group 2 = from 30 nM up to 40 nM, group 3 = 40 nM and over

Input line: Could you tell me which band AAAAAGAGAGGAUAUGCAGGAGAAAAAAAAAAAAAAAAAAAACAUGAGGAUCACCCAUGUAGAAGGCUCAAAAA [Ecls2-II] belongs to?
Output line: group 1

Input line: Could you tell me which band GAAAGGGCAGGAUAUGCAGAGAGAAAAAAAAAAAAAAAAAAACAUGAGGAUCACCCAUGUAGAAGGGCCGAAAG [salish99-ex2-03] belongs to?
Output line: group 2

Input line: Could you tell me which band AAAAAGUCAGGAUAUAUGCGAAAAAUAAAAAAAAUAAAAACAUAGAAGGGACAUGAGGAUCACCCAUGUUAAAA [Ex 4 May 17] belongs to?
Output line: group 3

Input line: Could you tell me which band AGUCAUACAGGAUAUACAUGAGGAUCACCCAUGUAUAUCCAAAAAAAAAAAAACUCAUGUAGAAGGGUAUGACA [EX3 206: Super Stable 6] belongs to?
Output line: group 1

Input line: Could you tell me which band AAUAGUGAAGGAUAUACAGGAGAAGAAAGAUAAAAGAAAGAACAUGAGGAUCACCCAUGUAGAAGGUCAGAAGU [JR_Exc002_Sub1229] belongs to?
Output line: group 1

Input line: Could you tell me which band AAAAAGUGAGGAUAUGUCAAAAGUCACAAAAGUGACAAAAGACAGAAGGCACAUGAGGAUCACCCAUGUGGGAA [Mod of Eli - Late G + early G segment 1] belongs to?
Output line: group 3

Input line: Could you tell me which band CUCAAGUUAGGAUAUCAAAGAAAAGAAGAGAAAGAAAAGAAUGAGAAGGAACAUGAGGAUCACCCAUGUAAGAA [EteRNA is fun!] belongs to?
Output line: group 2

Input line: Could you tell me which band GAAAAUUGAGGAUAUACGAACAUGUCAAAAGACGUGAAGGGACAUGAGGAUCACCCAUGUAGAAGGCGAAAGAG [Mat - Exclusion 2 - JL mod - D92] belongs to?
Output line: group 3

Input line: Could you tell me which band AACAGUACAGGAUAUACAUGAGGAUCACCCAUGUGAGAAUUAAGUGGCGAACCACAAAGUAGAAGGGUACUGGA [Mat - Exclusion 3 - JL mod - D1] belongs to?
Output line: group 3

Input line: Could you tell me which band AAAAAGUCAGGAUAUGUACAAAAUAAAAUAAAAAUAAAAGUACAGAAGGGACAUGAGGAUCACCCAUGUAAAAA [Ex 4 May 11] belongs to?
Output line: group 2

Input line: Could you tell me which band GAAGUACGAGGAUAUACAUAGAUACAGAUACAUGUAGACGUACAUGAGGAUCACCCAUGUAGAAGGCGUACAAG [Mat - Same state - Mayanna Mod - D117] belongs to?
Output line: group 3

Input line: Could you tell me which band ACAGCUGAAGGAUAUACUUGGGAAAAAAAAAAAAAAAAAAAACAUGAGGAUCACCCAUGUAGAAGGUCAGCUGA [Brourd - Exclusion 2 - Sub 1] belongs to?
Output line: group 3

* * *

# Test system: MS2 coat protein
# testSummary: apparent KD of MS2 coat protein; designed switch direction (-1 OFF switch, 1 ON switch): -1; higher = weaker reporter binding
# conditionContext: input ligand: FMN 200 uM
Please go through the items and note down their apparent KD of MS2 coat protein.
# value in nM; strip the unit string

Input line: Quick one: apparent KD of MS2 coat protein of AUUGCGCGAGGAUAUACGAGAGACCUGUGUCAGAACCAUGGACAUGAGGAUCACCCAUGUAGAAGGCGUGCUCU [Eternabot (L1) Solution 73] (Eterna round: R97, puzzle: Exclusion 2) ?
Output line: 78.6

Input line: Quick one: apparent KD of MS2 coat protein of UUUUAGCAAGCGAGUAUUAACAUGAGGAUCACCCAUGUGCAUCCAGUAUUACUUUUAGAUCAAGCUCGUCUUAUAUA [JR_STOV1_v2_Sub082] (Eterna round: R97, puzzle: Sensor, turn-off variant 1) ?
Output line: 199

Input line: Quick one: apparent KD of MS2 coat protein of UUGAAUUAACAGGAUAUGGGAGUCGAUAGACACCCAGAAGGGUUAACAUGAGGAUCACCCAUGUGUCCUAUCAA [Mod of Eli 23 - Jieux - Exclusion 6] (Eterna round: R97, puzzle: Exclusion 6) ?
Output line: 94.8

Input line: Quick one: apparent KD of MS2 coat protein of ACAUGACUGCUAGGAUAUAGAUGACAUGAGGAUCACCCAUGUUAUCCCAUGUUGACGGAAACCGACUAGAAGGAGCAGCAUAUG [Ex NG2 #9] (Eterna round: R96, puzzle: Exclusion NG 2) ?
Output line: 118

Input line: Quick one: apparent KD of MS2 coat protein of AGCAGACGAGGAUAUAAACGAUAUAACAUGAGGAUCACCCAUGUACGAUCGAAUGAUCGUUUAGAAGGCGUCUGCU [E5/10-A2] (Eterna round: R97, puzzle: Exclusion 5) ?
Output line: 17.3

Input line: Quick one: apparent KD of MS2 coat protein of CUAGCGAAUGUAGGAUAUCGGACUGUUUCAGUCUGAGAAGGACAUGAGGAUCACCCAUGUAUUGCUACGUGAGUAGCUCGCUAG [JL ENG1 3.92] (Eterna round: R96, puzzle: Exclusion NG 1) ?
Output line: 32.4

Input line: Quick one: apparent KD of MS2 coat protein of UUUUAACAAGCGAGGUCCCACAUGAGGAUCACCCAUGUAGGUCAUGGAUUCCAUGGUCUUUUUGCUCGUCUUGUGUG [jl TITIN mod 9] (Eterna round: R97, puzzle: Sensor, turn-off variant 1) ?
Output line: 32.2

Input line: Quick one: apparent KD of MS2 coat protein of AGCUAGAUAGGAUAUGCCCGAGAUAACAUGAGGAUCACCCAUGUGACCGAAUCAAAUCUAGCAGAAGGGUUUAGGA [Mod of ViennaUCT 15 - Jieux - Exclusion 5] (Eterna round: R97, puzzle: Exclusion 5) ?
Output line: 16.5

Input line: Quick one: apparent KD of MS2 coat protein of ACAUGAGGAUCACCCAUGUGACCACAAUGGCUGAUGUAAAGACAGGAUAUGUGUGAAUAUCUAACACAGAAGGGUCUUGACUGG [Deportation 57 - Jieux - Exclusion NG 3] (Eterna round: R96, puzzle: Exclusion NG 3) ?
Output line: 53

* * *

# Tested on: K4 kissing-loop RNA reporter;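 note: bound reporter read as fluorescence of individual clusters on recovered sequencing chips by microscopy, with normalized cluster intensities fitted with a binding model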
# testSummary: apparent KD of K4 kissing-loop reporter; higher = weaker reporter binding
# conditionContext: Eterna round: R107; input ligand: FMN 200 uM
Record TRUE whenever apparent KD of K4 kissing-loop reporter is at 200 nM or higher; record FALSE when lower.

Input line: Could you please find out whether UGUGGAGAAUAUGAUACCAGCAGUGAGAGAGAGGAAGUAUAGUGAUGUUAUAUGAGAGAAUGCCCUUGGCAGCAUAUGUAGUAGG [SSTheophylB.G] has apparent KD of K4 kissing-loop reporter that meets 200 nM or exceeds it?
Output line: TRUE

Input line: Could you please find out whether AAACAUUGGUCGGAUACCAGCUGAUCGGAAACGAUCUUGCUGGAGUGAUGUUCCAAGUAAAGCCCUUGGCAGCCGACCGAUGAAA [MAT - Same State Theophlline B - Mod of Eli - D20] has apparent KD of K4 kissing-loop reporter that meets 200 nM or exceeds it?
Output line: FALSE

Input line: Could you please find out whether UAGGGUUGAAAAGGAUAUUUACCCUAUGUCAACGAGUGAUGUUCGUGGACAUUAGGCACAACUCGUAAAGAAGGUUUCCAGACUC [theeternabot_sameState_KL_FMN_B_39] has apparent KD of K4 kissing-loop reporter that meets 200 nM or exceeds it?
Output line: FALSE

Input line: Could you please find out whether GAUGAAGAGUCGUUAGUUAGGGCUUUCGAUACCAGCGCCCGUCCACGCCCUUGGCAGCGAUUGAAAGAGUGAUGUUCUGUCAGGA [theeternabot_exclusion_KL_Theo_A_31] has apparent KD of K4 kissing-loop reporter that meets 200 nM or exceeds it?
Output line: TRUE

Input line: Could you please find out whether GGUCCGCGGUCGGCCGCCACUGAACAAGACCAGUGAUGUUGGAUCUUCCAGUGCGUUGGCUUUAACAGGACCGGGACCGUGGAGC [Titia] has apparent KD of K4 kissing-loop reporter that meets 200 nM or exceeds it?
Output line: FALSE

Input line: Could you please find out whether AAUGUACAGGGAAGGAGCGCCGUCCAGUGAUGUUGGAGUUAAAUACCAGUGAUGUUGGUUAGGCAGGUAGGUCGCCCUAUAGUAU [#07 K4 Arginine B Exclusion] has apparent KD of K4 kissing-loop reporter that meets 200 nM or exceeds it?
Output line: FALSE
